target: CYP2C9 (Homo sapiens (Human), UniProt P11712); test: in vitro; assay type: in vitro ADME; details: human, microsomes
Sequence (P11712 whole entry): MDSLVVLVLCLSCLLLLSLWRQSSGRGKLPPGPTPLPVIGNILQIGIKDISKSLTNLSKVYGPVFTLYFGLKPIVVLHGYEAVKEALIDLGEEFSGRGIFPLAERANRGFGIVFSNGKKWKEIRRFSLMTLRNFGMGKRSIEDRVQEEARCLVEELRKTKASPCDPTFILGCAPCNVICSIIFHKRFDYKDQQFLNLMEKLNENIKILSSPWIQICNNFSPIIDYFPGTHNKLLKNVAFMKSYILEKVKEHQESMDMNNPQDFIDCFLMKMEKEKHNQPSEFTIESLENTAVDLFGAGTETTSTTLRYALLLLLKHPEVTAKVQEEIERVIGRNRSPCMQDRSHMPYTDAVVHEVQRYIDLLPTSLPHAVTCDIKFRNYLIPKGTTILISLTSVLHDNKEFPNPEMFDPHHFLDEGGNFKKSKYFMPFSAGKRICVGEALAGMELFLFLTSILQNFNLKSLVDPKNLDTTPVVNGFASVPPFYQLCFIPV
Property measured: inhibition at 50 µM (%)
Answer with a number only, understood to be in %.

[in] Return value of inhibition at 50 µM for input `CC#CCn1c(N2CCC[C@@H](N)C2)nc2c1c(=O)n(Cc1nccnc1C#N)c(=O)n2C` , no commentary.
[out] 13.9

* * *

Target: UniProt P05177
Experiment: in vitro
Format: in vitro ADME
Settings: human, microsomes
From the text: 1. Test method: human liver microsomes were used to carry out inhibition activity test of the compounds to CYP enzyme. […]
Property measured: inhibition at 0.15 µM (%)
Answer with a number only, understood to be in %.

[in] Enter measured inhibition at 0.15 µM, system UniProt P05177, for the compound shown: CC#CCn1c(N2CCC[C@@H](N)C2)nc2c1c(=O)n(Cc1nccnc1C#N)c(=O)n2C [Compound I-3]
[out] 0

* * *

target: CYP2D6 (Homo sapiens (Human)); experiment: in vitro; type: in vitro ADME; conditions: human, microsomes
Sequence (P10635 whole entry): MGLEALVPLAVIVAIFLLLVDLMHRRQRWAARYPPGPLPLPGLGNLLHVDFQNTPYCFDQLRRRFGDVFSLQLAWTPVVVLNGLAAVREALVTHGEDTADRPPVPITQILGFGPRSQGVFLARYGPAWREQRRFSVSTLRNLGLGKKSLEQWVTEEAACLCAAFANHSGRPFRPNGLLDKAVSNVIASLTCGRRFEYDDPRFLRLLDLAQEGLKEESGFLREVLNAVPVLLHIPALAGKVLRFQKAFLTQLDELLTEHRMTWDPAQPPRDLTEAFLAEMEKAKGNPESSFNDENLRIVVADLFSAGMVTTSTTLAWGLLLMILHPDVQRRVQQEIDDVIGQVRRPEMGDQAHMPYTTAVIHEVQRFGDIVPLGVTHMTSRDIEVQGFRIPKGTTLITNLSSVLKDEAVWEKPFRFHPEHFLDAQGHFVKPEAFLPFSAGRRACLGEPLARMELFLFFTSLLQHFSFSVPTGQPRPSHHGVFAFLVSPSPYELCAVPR
Property measured: inhibition at 0.05 µM (%)
Answer with a number only, understood to be in %.

[in] Return value of inhibition at 0.05 µM for input CC#CCn1c(N2CCC[C@@H](N)C2)nc2c1c(=O)n(Cc1nccnc1C#N)c(=O)n2C [Compound I-3] , no commentary.
[out] 0

* * *

target: CYP2C9 (Homo sapiens (Human), UniProt P11712); assay: in vitro; format: in vitro ADME; conditions: human, microsomes
Property measured: inhibition at 0.05 µM (%)
Answer with a number only, understood to be in %.

[in] Return value of inhibition at 0.05 µM for input `CC#CCn1c(N2CCC[C@@H](N)C2)nc2c1c(=O)n(Cc1nccnc1C#N)c(=O)n2C` , no commentary.
[out] 0

* * *

test: Pharmacokinetics experiments in CD-1 mice; type: in vivo, mouse; settings: CD-1, mouse, plasma, oral; gavage 5 mg/kg, 2.00 h; read-out: Plasma drug concentration
Property measured: concentration at 2 h (ng/mL)
Answer with a number only, understood to be in ng/mL.

[in] Return value of concentration at 2 h for input CC#CCn1c(N2CCC[C@@H](N)C2)nc2c1c(=O)n(Cc1nccnc1C#N)c(=O)n2C [Compound I-3] , no commentary.
[out] 211

* * *

Biological target: CYP2C19 (Homo sapiens (Human))
Sequence (P33261 whole entry): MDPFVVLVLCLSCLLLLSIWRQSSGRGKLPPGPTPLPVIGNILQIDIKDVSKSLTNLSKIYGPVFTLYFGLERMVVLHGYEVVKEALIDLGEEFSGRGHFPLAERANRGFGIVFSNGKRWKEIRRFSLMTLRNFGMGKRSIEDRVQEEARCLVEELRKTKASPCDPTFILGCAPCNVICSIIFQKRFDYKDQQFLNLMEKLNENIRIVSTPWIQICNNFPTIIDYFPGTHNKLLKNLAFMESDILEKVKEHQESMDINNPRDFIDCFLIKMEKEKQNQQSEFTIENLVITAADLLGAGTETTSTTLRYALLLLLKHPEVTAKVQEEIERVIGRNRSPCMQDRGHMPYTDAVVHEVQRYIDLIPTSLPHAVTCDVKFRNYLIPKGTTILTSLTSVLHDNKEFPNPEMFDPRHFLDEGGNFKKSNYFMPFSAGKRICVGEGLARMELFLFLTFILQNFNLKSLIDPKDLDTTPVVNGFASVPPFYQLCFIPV
Experiment: in vitro
Type: in vitro ADME
Settings: human, microsomes
Source text: 1. Test method: human liver microsomes were used to carry out inhibition activity test of the compounds to CYP enzyme. […]
Property measured: inhibition at 5 µM (%)
Answer with a number only, understood to be in %.

[in] Return value of inhibition at 5 µM for input CC#CCn1c(N2CCC[C@@H](N)C2)nc2c1c(=O)n(Cc1nccnc1C#N)c(=O)n2C [Compound I-3] , no commentary.
[out] 8.2

* * *

biological target: CYP1A2 (Homo sapiens (Human)); assay: in vitro; format: in vitro ADME; details: human, microsomes
Property measured: inhibition at 0.05 µM (%)
Answer with a number only, understood to be in %.

[in] Return value of inhibition at 0.05 µM for input `CC#CCn1c(N2CCC[C@@H](N)C2)nc2c1c(=O)n(Cc1nccnc1C#N)c(=O)n2C` , no commentary.
[out] 0

* * *

experiment: Pharmacokinetics experiments in CD-1 mice; assay type: in vivo, mouse; conditions: CD-1, mouse, blood, oral; dosage 5 mg/kg; read-out: Cmax in mice
Property measured: Cmax

[in] Return value of Cmax for input CC#CCn1c(N2CCC[C@@H](N)C2)nc2c1c(=O)n(Cc1nccnc1C#N)c(=O)n2C [Compound I-3] , no commentary.
[out] 200 to 500 nM

* * *

test: Pharmacokinetics experiments in CD-1 mice; type: in vivo, mouse; conditions: CD-1, mouse, plasma, oral; gavage 5 mg/kg, 1.00 h; read-out: Plasma drug concentration
Property measured: concentration at 1 h (ng/mL)
Answer with a number only, understood to be in ng/mL.

[in] Return value of concentration at 1 h for input `CC#CCn1c(N2CCC[C@@H](N)C2)nc2c1c(=O)n(Cc1nccnc1C#N)c(=O)n2C` , no commentary.
[out] 183

* * *

assay: Pharmacokinetics experiments in CD-1 mice; assay type: in vivo, mouse; details: CD-1, mouse, plasma; intravenous injection 2 mg/kg, 0.500 h; read-out: Plasma drug concentration
Property measured: concentration at 0.5 h (ng/mL)
Answer with a number only, understood to be in ng/mL.

[in] Return value of concentration at 0.5 h for input CC#CCn1c(N2CCC[C@@H](N)C2)nc2c1c(=O)n(Cc1nccnc1C#N)c(=O)n2C [Compound I-3] , no commentary.
[out] 344

* * *

target: CYP3A4 (Homo sapiens (Human)); experiment: in vitro; format: in vitro ADME; conditions: human, microsomes
Sequence (P08684 whole entry): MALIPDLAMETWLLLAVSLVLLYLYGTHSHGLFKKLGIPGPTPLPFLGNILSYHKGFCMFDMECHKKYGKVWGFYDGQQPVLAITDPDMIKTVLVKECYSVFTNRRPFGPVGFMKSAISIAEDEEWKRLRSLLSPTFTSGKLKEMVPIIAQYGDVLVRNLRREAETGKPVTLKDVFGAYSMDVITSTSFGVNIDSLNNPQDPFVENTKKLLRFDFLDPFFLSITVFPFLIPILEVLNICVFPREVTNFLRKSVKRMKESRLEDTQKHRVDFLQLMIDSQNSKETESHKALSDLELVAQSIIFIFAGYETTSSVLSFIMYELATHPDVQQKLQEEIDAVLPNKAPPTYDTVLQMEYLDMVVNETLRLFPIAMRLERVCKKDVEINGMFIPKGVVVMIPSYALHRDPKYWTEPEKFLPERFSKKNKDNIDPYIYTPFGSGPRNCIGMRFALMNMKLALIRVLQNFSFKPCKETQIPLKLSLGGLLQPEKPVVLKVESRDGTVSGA
Property measured: inhibition at 0.5 µM
Entry format: amount then unit.

[in] Enter measured inhibition at 0.5 µM, system CYP3A4 (Homo sapiens (Human)), for the compound shown: CC#CCn1c(N2CCC[C@@H](N)C2)nc2c1c(=O)n(Cc1nccnc1C#N)c(=O)n2C [Compound I-3]
[out] 4%

* * *

molecular target: CYP2C9 (Homo sapiens (Human)); experiment: in vitro; format: in vitro ADME; conditions: human, microsomes
Property measured: inhibition at 0.15 µM (%)
Answer with a number only, understood to be in %.

[in] Return value of inhibition at 0.15 µM for input CC#CCn1c(N2CCC[C@@H](N)C2)nc2c1c(=O)n(Cc1nccnc1C#N)c(=O)n2C [Compound I-3] , no commentary.
[out] 0

* * *

target: humanized recombinant DPP-IV (Homo sapiens (Human)); experiment: DPP-IV activity inhibition test in vitro (DPPIV-Glo luminescence); format: biochemical; conditions: DPP-IV, Table 1; read-out: IC50
Sequence (P27487 whole entry): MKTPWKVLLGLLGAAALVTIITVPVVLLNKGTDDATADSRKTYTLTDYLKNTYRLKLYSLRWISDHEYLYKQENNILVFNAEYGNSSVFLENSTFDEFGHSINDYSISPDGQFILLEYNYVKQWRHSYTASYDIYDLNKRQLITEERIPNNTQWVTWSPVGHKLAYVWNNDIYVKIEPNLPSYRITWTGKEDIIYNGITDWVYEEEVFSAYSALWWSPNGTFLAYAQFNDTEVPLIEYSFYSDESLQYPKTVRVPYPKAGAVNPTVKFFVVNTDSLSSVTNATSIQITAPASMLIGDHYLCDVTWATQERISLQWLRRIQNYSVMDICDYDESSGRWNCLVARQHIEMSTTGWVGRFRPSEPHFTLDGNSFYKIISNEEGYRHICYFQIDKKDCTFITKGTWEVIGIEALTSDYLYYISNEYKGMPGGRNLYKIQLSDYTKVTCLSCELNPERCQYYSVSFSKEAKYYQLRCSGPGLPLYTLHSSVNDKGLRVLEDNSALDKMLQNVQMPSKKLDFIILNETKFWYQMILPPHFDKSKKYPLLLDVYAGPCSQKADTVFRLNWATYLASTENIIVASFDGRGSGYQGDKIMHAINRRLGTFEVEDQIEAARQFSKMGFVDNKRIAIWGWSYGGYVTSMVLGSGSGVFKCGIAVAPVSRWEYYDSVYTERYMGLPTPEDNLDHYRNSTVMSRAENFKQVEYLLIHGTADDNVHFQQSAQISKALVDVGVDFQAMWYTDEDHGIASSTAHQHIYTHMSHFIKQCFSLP
Examples of compounds with documented IC50 follow.
Answer with a number only, understood to be in nM.

Consider the reported IC50 for these compounds:
Compound structure | Number
CC#CCn1c(N2CCC[C@@H](N)C2)nc2c1c(=O)n(Cc1cc(F)c(F)cc1C#N)c(=O)n2C | 2.1
CC#CCn1c(N2CCC[C@@H](N)C2)nc2c1c(=O)n(Cc1ncccc1C(=O)OC)c(=O)n2C | 4.8
CC#CCn1c(N2CCC[C@@H](N)C2)nc2c1c(=O)n(Cc1cccc(F)c1C#N)c(=O)n2C | 0.21

Consider the additional compound presented here.
[in] Return value of IC50 for input `CC#CCn1c(N2CCC[C@@H](N)C2)nc2c1c(=O)n(Cc1nccnc1C#N)c(=O)n2C` , no commentary.
[out] 0.08

* * *

assay: Pharmacokinetics experiments in CD-1 mice; type: in vivo, mouse; details: mouse, plasma, oral; gavage 5 mg/kg versus intravenous 2 mg/kg, CD-1 mice
Property measured: bioavailability
Entry format: amount then unit.

[in] Return value of bioavailability for input CC#CCn1c(N2CCC[C@@H](N)C2)nc2c1c(=O)n(Cc1nccnc1C#N)c(=O)n2C [Compound I-3] , no commentary.
[out] 60.5%

* * *

molecular target: CYP2C9 (Homo sapiens (Human)); test: in vitro; type: in vitro ADME; settings: human, microsomes
Property measured: inhibition at 1.5 µM (%)
Answer with a number only, understood to be in %.

[in] Return value of inhibition at 1.5 µM for input `CC#CCn1c(N2CCC[C@@H](N)C2)nc2c1c(=O)n(Cc1nccnc1C#N)c(=O)n2C` , no commentary.
[out] 5.7

* * *

target: UniProt:P08684; test: in vitro; assay type: in vitro ADME; details: human, microsomes
Property measured: inhibition at 5 µM (%)
Answer with a number only, understood to be in %.

[in] Return value of inhibition at 5 µM for input `CC#CCn1c(N2CCC[C@@H](N)C2)nc2c1c(=O)n(Cc1nccnc1C#N)c(=O)n2C` , no commentary.
[out] 8.7

* * *

target: CYP2C9 (Homo sapiens (Human), UniProt P11712)
Property measured: IC50

[in] Enter measured IC50, system CYP2C9 (Homo sapiens (Human), UniProt P11712), for the compound shown: `CC#CCn1c(N2CCC[C@@H](N)C2)nc2c1c(=O)n(Cc1nccnc1C#N)c(=O)n2C`
[out] > 50 µM

* * *

molecular target: CYP1A2 (Homo sapiens (Human), UniProt P05177); test: in vitro; format: in vitro ADME; conditions: human, microsomes
Sequence (P05177 whole entry): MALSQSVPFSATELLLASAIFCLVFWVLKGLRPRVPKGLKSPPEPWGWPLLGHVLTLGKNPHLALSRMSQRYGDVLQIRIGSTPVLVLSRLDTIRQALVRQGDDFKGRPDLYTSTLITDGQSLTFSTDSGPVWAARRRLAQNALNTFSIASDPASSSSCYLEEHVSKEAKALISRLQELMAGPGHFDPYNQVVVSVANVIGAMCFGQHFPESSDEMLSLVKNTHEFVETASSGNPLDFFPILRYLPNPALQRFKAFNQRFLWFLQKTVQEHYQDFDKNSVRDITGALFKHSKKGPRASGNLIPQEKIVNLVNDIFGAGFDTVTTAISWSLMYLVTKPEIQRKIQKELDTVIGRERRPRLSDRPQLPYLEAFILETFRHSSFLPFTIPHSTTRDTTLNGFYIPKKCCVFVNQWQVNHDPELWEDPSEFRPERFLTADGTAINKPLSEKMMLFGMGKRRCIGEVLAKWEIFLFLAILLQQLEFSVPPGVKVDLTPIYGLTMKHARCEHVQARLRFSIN
Property measured: inhibition at 50 µM (%)
Answer with a number only, understood to be in %.

[in] Return value of inhibition at 50 µM for input CC#CCn1c(N2CCC[C@@H](N)C2)nc2c1c(=O)n(Cc1nccnc1C#N)c(=O)n2C [Compound I-3] , no commentary.
[out] 41.8

* * *

target: CYP2C9 (Homo sapiens (Human), UniProt P11712); experiment: in vitro; assay type: in vitro ADME; conditions: human, microsomes
Property measured: inhibition at 5 µM (%)
Answer with a number only, understood to be in %.

[in] Enter measured inhibition at 5 µM, system CYP2C9 (Homo sapiens (Human), UniProt P11712), for the compound shown: `CC#CCn1c(N2CCC[C@@H](N)C2)nc2c1c(=O)n(Cc1nccnc1C#N)c(=O)n2C`
[out] 10.5
